Ref: PubChem BioAssay AID1918958

tested on: NCI-H196 complex spheroid viability; assay: Anticancer human tumor NCI-H196 cell line growth inhibition [LSD1]; details: second compound 0.1 µM; first compound 0.1 µM; active = viability on the fitted dose curve at most 10% of control; inactive = the rest;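 note: spheroids exposed to agents for 7 days before readout; 100% = DMSO vehicle control viability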
Write down one outcome, taken from True for active, False for inactive

CC[C@@]1(O)C(=O)OCc2c1cc1n(c2=O)Cc2cc3c(CN(C)C)c(O)ccc3nc2-1 + NC1CCC(NC2CC2c2ccccc2)CC1; False

Incoming: State the result this test recorded for COc1ccc([C@@H](O)c2cc(-c3ncnc4cc(N5CCOCC5)ccc34)c(F)cc2Cl)nn1 + NC1CCC(NC2CC2c2ccccc2)CC1 .
Outgoing: False

Incoming: State the result this test recorded for O=C(C=Cn1cnc(-c2cc(C(F)(F)F)cc(C(F)(F)F)c2)n1)NNc1cnccn1 + NC1CCC(NC2CC2c2ccccc2)CC1 .
Outgoing: False

Incoming: State the result this test recorded for O=C(c1cc(Cc2n[nH]c(=O)c3ccccc23)ccc1F)N1CCN(C(=O)C2CC2)CC1 + NC1CC1c1ccc(-c2cccc(O)c2)cc1 .
Outgoing: False

Incoming: State the result this test recorded for CC(C)CC(NC(=O)C(Cc1ccccc1)NC(=O)c1cnccn1)B(O)O (centres undefined) + NC1CC1c1ccc(-c2cccc(O)c2)cc1 .
Outgoing: True

Incoming: State the result this test recorded for Nc1ncn(C2CC(O)C(CO)O2)c(=O)n1 (centres undefined) + NC1CCC(NC2CC2c2ccccc2)CC1 .
Outgoing: False

Incoming: State the result this test recorded for CC1COCCN1c1cc(C2(S(C)(=N)=O)CC2)nc(-c2ccnc3[nH]ccc23)n1 (centres undefined) + NC1CCC(NC2CC2c2ccccc2)CC1 .
Outgoing: False

Incoming: State the result this test recorded for CC[C@@]1(O)C(=O)OCc2c1cc1n(c2=O)Cc2cc3c(CN(C)C)c(O)ccc3nc2-1 + NC1CC1c1ccc(-c2cccc(O)c2)cc1 .
Outgoing: False

====

test system: NCI-H196 complex spheroid viability; assay: Anticancer human tumor NCI-H196 cell line growth inhibition [LSD1]; details: second compound 3.16 µM; first compound 3.16 µM; hits give low values;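 note: spheroids exposed to agents for 7 days before readout; 100% = DMSO vehicle control viability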
reportedEndpoint: viability, T/C (%)
Quick reminder: number only, in %, skip the unit.

CC1COCCN1c1cc(C2(S(C)(=N)=O)CC2)nc(-c2ccnc3[nH]ccc23)n1 (stereo not given) + NC1CC1c1ccc(-c2cccc(O)c2)cc1; 70.2
O=C(c1cc(Cc2n[nH]c(=O)c3ccccc23)ccc1F)N1CCN(C(=O)C2CC2)CC1 + NC1CC1c1ccc(-c2cccc(O)c2)cc1; 88.9
COc1ccc([C@@H](O)c2cc(-c3ncnc4cc(N5CCOCC5)ccc34)c(F)cc2Cl)nn1 + NC1CCC(NC2CC2c2ccccc2)CC1; 69.5
O=C(c1cc(Cc2n[nH]c(=O)c3ccccc23)ccc1F)N1CCN(C(=O)C2CC2)CC1 + NC1CCC(NC2CC2c2ccccc2)CC1; 85.7
COc1ccc([C@@H](O)c2cc(-c3ncnc4cc(N5CCOCC5)ccc34)c(F)cc2Cl)nn1 + NC1CC1c1ccc(-c2cccc(O)c2)cc1; 59.9

Incoming: Entry CC(C)c1c(-c2ccccc2)nc2c(C#N)c[nH]n2c1=O + NC1CC1c1ccc(-c2cccc(O)c2)cc1 has what viability, T/C?
Outgoing: 91.6

Incoming: Entry CC(C)c1c(-c2ccccc2)nc2c(C#N)c[nH]n2c1=O + NC1CCC(NC2CC2c2ccccc2)CC1 has what viability, T/C?
Outgoing: 94.3

Incoming: Entry CC1COCCN1c1cc(C2(S(C)(=N)=O)CC2)nc(-c2ccnc3[nH]ccc23)n1 (stereo not given) + NC1CCC(NC2CC2c2ccccc2)CC1 has what viability, T/C?
Outgoing: 79.5

Incoming: Entry CC1(C)CCC(CN2CCN(c3ccc(C(=O)NS(=O)(=O)c4ccc(NCC5CCOCC5)c([N+](=O)[O-])c4)c(Oc4cnc5[nH]ccc5c4)c3)CC2)=C(c2ccc(Cl)cc2)C1 + NC1CC1c1ccc(-c2cccc(O)c2)cc1 has what viability, T/C?
Outgoing: 80.6

Incoming: Entry CC1(C)CCC(CN2CCN(c3ccc(C(=O)NS(=O)(=O)c4ccc(NCC5CCOCC5)c([N+](=O)[O-])c4)c(Oc4cnc5[nH]ccc5c4)c3)CC2)=C(c2ccc(Cl)cc2)C1 + NC1CCC(NC2CC2c2ccccc2)CC1 has what viability, T/C?
Outgoing: 82.8
